Molecular target: T1, human tissue factor pathway inhibitor (TFPI) (human, UniProt P10646 29-304, limits assumed)
T1 construct: bought; also called hTFPI; human TFPI
T1 sequence (looked up): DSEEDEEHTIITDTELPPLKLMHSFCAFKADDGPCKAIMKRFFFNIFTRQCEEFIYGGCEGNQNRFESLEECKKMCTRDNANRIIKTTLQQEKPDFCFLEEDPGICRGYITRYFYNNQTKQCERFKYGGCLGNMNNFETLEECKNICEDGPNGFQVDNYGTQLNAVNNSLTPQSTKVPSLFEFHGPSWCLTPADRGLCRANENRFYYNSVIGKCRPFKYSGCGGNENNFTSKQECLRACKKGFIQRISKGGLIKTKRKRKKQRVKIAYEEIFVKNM
Assay: competitive ELISA
Binarize variant/HC_K99L at 10 ratio; below is met, at or above is not met.

Problem: For this binder, is variant/HC_K99L lower than 10 ratio? 2A8 HC Q1E+R30S+S35D+S55R+S56G+K99L/LC D1S+I2Y+A13S+S21T+R28P+Y48F+N51V+E80M+D91W (Fab, V domains shown) VH: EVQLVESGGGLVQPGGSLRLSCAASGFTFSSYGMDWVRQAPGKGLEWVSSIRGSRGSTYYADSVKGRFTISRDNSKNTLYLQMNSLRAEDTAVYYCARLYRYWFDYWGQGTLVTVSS VL: SYELTQPPSVSVSPGQTARITCSGDNLPNYYAHWYQQKPGQAPVVVIFYDVNRPSGIPERFSGSNSGNTATLTISGTQAMDEADYYCQSWWDGVPVFGGGTKLTVLG
Result: not met

Problem: For this binder, is variant/HC_K99L lower than 10 ratio? 2A8-227 (HC S35D+K99L/LC Y48F+D91L+V96W) (Fab, V domains shown) VH: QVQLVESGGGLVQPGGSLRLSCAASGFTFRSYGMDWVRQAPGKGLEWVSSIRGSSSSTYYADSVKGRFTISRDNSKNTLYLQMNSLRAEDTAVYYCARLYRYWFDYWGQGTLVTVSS VL: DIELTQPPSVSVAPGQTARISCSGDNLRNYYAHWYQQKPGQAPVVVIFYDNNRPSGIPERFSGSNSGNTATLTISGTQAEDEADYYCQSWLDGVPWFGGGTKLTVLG
Result: not met

Problem: For this binder, is variant/HC_K99L lower than 10 ratio? 2A8 HC S35D+I51D+K99L/LC Y48F+D91W (Fab, V domains shown) VH: QVQLVESGGGLVQPGGSLRLSCAASGFTFRSYGMDWVRQAPGKGLEWVSSDRGSSSSTYYADSVKGRFTISRDNSKNTLYLQMNSLRAEDTAVYYCARLYRYWFDYWGQGTLVTVSS VL: DIELTQPPSVSVAPGQTARISCSGDNLRNYYAHWYQQKPGQAPVVVIFYDNNRPSGIPERFSGSNSGNTATLTISGTQAEDEADYYCQSWWDGVPVFGGGTKLTVLG
Result: met

Problem: For this binder, is variant/HC_K99L lower than 10 ratio? 2A8 HC M34K+S35D+S55R+K99L/LC Y48F+N51V+D91W (Fab, V domains shown) VH: QVQLVESGGGLVQPGGSLRLSCAASGFTFRSYGKDWVRQAPGKGLEWVSSIRGSRSSTYYADSVKGRFTISRDNSKNTLYLQMNSLRAEDTAVYYCARLYRYWFDYWGQGTLVTVSS VL: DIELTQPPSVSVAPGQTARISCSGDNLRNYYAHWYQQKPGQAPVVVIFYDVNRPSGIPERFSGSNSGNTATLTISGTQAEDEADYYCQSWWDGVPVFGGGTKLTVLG
Result: not met

Problem: For this binder, is variant/HC_K99L lower than 10 ratio? 2A8 HC S35D+S55R+K99L/LC Y48F+N51V+S89A+D91W+D92S+G93S+V94T+P95A (Fab, V domains shown) VH: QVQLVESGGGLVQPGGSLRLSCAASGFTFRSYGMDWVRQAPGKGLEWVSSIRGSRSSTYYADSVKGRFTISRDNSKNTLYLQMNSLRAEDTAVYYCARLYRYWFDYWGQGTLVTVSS VL: DIELTQPPSVSVAPGQTARISCSGDNLRNYYAHWYQQKPGQAPVVVIFYDVNRPSGIPERFSGSNSGNTATLTISGTQAEDEADYYCQAWWSSTAVFGGGTKLTVLG
Result: not met

Problem: For this binder, is variant/HC_K99L lower than 10 ratio? 2A8 HC S31V+S35D+I51D+K99V/LC Y48F+D91K (Fab, V domains shown) VH: QVQLVESGGGLVQPGGSLRLSCAASGFTFRVYGMDWVRQAPGKGLEWVSSDRGSSSSTYYADSVKGRFTISRDNSKNTLYLQMNSLRAEDTAVYYCARVYRYWFDYWGQGTLVTVSS VL: DIELTQPPSVSVAPGQTARISCSGDNLRNYYAHWYQQKPGQAPVVVIFYDNNRPSGIPERFSGSNSGNTATLTISGTQAEDEADYYCQSWKDGVPVFGGGTKLTVLG
Result: met

Problem: For this binder, is variant/HC_K99L lower than 10 ratio? 2A8 HC S31V+I51E+S55R+K99V/LC Y48F+D91L+V96W (Fab, V domains shown) VH: QVQLVESGGGLVQPGGSLRLSCAASGFTFRVYGMSWVRQAPGKGLEWVSSERGSRSSTYYADSVKGRFTISRDNSKNTLYLQMNSLRAEDTAVYYCARVYRYWFDYWGQGTLVTVSS VL: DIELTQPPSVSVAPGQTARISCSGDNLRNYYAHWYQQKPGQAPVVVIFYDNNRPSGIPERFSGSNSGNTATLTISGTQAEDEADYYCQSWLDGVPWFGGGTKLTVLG
Result: met

Problem: For this binder, is variant/HC_K99L lower than 10 ratio? 2A8 HC G33A+S35D+S55R+K99L/LC Y48F+N51V+D91W (Fab, V domains shown) VH: QVQLVESGGGLVQPGGSLRLSCAASGFTFRSYAMDWVRQAPGKGLEWVSSIRGSRSSTYYADSVKGRFTISRDNSKNTLYLQMNSLRAEDTAVYYCARLYRYWFDYWGQGTLVTVSS VL: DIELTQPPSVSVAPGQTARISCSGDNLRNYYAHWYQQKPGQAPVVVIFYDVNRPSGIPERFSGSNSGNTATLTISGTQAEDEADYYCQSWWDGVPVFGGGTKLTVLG
Result: not met

Problem: For this binder, is variant/HC_K99L lower than 10 ratio? 2A8 HC S31V+S35D/LC Y48F+N51V (Fab, V domains shown) VH: QVQLVESGGGLVQPGGSLRLSCAASGFTFRVYGMDWVRQAPGKGLEWVSSIRGSSSSTYYADSVKGRFTISRDNSKNTLYLQMNSLRAEDTAVYYCARKYRYWFDYWGQGTLVTVSS VL: DIELTQPPSVSVAPGQTARISCSGDNLRNYYAHWYQQKPGQAPVVVIFYDVNRPSGIPERFSGSNSGNTATLTISGTQAEDEADYYCQSWDDGVPVFGGGTKLTVLG
Result: met

Value source: patent USRE47150
